- study system: GLP-1R (Homo sapiens)
- Sequence (P43220 24-463): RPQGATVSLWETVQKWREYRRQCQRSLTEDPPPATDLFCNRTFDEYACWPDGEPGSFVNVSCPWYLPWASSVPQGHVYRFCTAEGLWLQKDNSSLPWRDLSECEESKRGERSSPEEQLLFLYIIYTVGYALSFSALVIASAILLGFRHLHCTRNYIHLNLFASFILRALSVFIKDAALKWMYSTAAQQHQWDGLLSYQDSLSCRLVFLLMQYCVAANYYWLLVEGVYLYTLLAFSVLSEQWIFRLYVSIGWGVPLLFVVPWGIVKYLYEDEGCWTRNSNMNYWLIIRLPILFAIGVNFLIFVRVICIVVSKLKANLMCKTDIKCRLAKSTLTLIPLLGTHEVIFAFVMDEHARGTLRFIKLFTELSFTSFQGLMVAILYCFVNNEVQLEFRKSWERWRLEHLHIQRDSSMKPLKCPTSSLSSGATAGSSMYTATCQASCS
- Sequence (P01275 100-127 partner limits assumed): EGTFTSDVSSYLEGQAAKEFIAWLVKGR
- test method notes: EC20 GLP-1(9-36) PAM cAMP assay: dose response of compound in the presence of fixed concentration of GLP-1(9-36)
- condition label: GLP-1R CRE-bla CHO-K1 cells, compound dose response in presence of fixed concentration of GLP-1(9-36)
endpoint: EC50

[
  {
    "compound": "CC(C)(C)c1ccc(-c2cnc(-c3ccc(C[C@H](NC(=O)c4cc(C(C)(C)C)n[nH]4)C(=O)O)cc3)nc2)cc1",
    "EC50": "800 to 2500 nM"
  }
]

Please fill in: EC50 reported for `CCCCCCCOc1ccc(-c2cnc(-c3ccc(C[C@H](NC(=O)c4ccc(Cl)cc4)C(=O)O)cc3)nc2)cc1` = 800 to 2500 nM

Please fill in: EC50 reported for `CC(C)(C)c1ccc(C(=O)N[C@@H](Cc2ccc(-c3noc(-c4ccc(N)cc4)n3)cc2)C(=O)O)cc1` = 2500 to 5000 nM

Please fill in: EC50 reported for `CCCCCCCOc1ccc(-c2ccc(-c3ccc(C[C@H](NC(=O)c4ccc(C(C)(C)C)cc4)C(=O)O)cc3)nc2)cc1` = 800 to 2500 nM

Please fill in: EC50 reported for `COc1cc(C(F)(F)F)ccc1-c1ccc(-c2nc(-c3ccc(C[C@H](NC(=O)c4ccc(C(C)(C)C)cc4)C(=O)O)cc3)no2)cc1` = 800 to 2500 nM

Please fill in: EC50 reported for `CCCOc1ccc(-c2nc(-c3ccc(C[C@H](NC(=O)c4ccc(C(C)(C)C)cc4)C(=O)O)cc3)no2)cc1` = 2500 to 5000 nM

Please fill in: EC50 reported for `CCN(CC)c1ccc(-c2nc(-c3ccc(C[C@H](NC(=O)c4ccc(C(C)(C)C)cc4)C(=O)O)cc3)no2)cc1` = 5000 to 10000 nM

The measurements presented in this section are drawn from patent US8778923B2.
